- Tested on: PDC 899932-113-R3-J6 complex spheroid viability;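 further: spheroids exposed to agents for seven days before readout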
- Test Description: Anticancer human tumor 899932-113-R3-J6-PDC patient-derived melanoma cell line growth inhibition [RAS]; active means viability on the fitted dose curve at most 10% of control; inactive means the rest
- Cond: second compound 0.003 µM; first compound 0.1 µM
Select the correct class. Options are active, inactive and nothing else.

Task: Tell me the recorded outcome of this test for O=C(c1ccc(F)c(F)c1Nc1ccc(I)cc1F)N1CC(O)([C@@H]2CCCCN2)C1 + CCn1c(-c2cccnc2C(C)OC)c2c3cc(ccc31)N1CCOC(CC(NC(=O)C(C(C)C)N(C)C(=O)C3(F)CCN(C(=O)C#CC(C)(C)N(C)C)CC3)C(=O)N3CCCC(N3)C(=O)OCC(C)(C)C2)C1 .
Output: active

Task: Tell me the recorded outcome of this test for CC1(O)CCCC1n1c(=O)c(C(F)F)cc2cnc(NC3CCN(S(C)(=O)=O)CC3)nc21 (stereo not drawn) + CCn1c(-c2cc(N3CCN(C)CC3)cnc2C(C)OC)c2c3cc(ccc31)-c1csc(n1)CC(NC(=O)C1CC1C)C(=O)N1CCCC(N1)C(=O)OCC(C)(C)C2 .
Output: inactive

Task: Tell me the recorded outcome of this test for NC1c2ccccc2OC12CCN(c1cnc3c(N4CCCc5ncccc54)n[nH]c3n1)CC2 (stereo not drawn) + CCn1c(-c2cccnc2C(C)OC)c2c3cc(ccc31)N1CCOC(CC(NC(=O)C(C(C)C)N(C)C(=O)C3(F)CCN(C(=O)C#CC(C)(C)N(C)C)CC3)C(=O)N3CCCC(N3)C(=O)OCC(C)(C)C2)C1 .
Output: inactive
